# System: cytokine signaling via JAK
# Experiment description: Signal assay in human whole blood (STAT phosphorylation assay)
# Assay type: cell-based
# Condition parameters: T-cell, human IL-6 100 ng/mL, phosphated STAT-1 in CD3 positive T cells
pIC50: −log10 of the molar value.
Kindly return 1.0 if reported pIC50 is no lower than 6; return 0.0 if it is lower.

[Q] Has Cc1nc(CN2CCC(n3ccc(=O)c4cnc5[nH]ccc5c43)CC2)cs1 [Compound J, reference compound] a recorded pIC50 greater than or equal to 6?
[A] 0.0

[Q] Has O=C1CCN(C2CCC(CO)CC2)c2c1cnc1[nH]ccc21 (stereo not drawn) [Compound F, reference compound] a recorded pIC50 greater than or equal to 6?
[A] 0.0

[Q] Has O=c1ccn([C@H]2CC[C@H](COCC(F)(F)F)CC2)c2c1cnc1[nH]ccc12 [Synthetic Example 5] a recorded pIC50 greater than or equal to 6?
[A] 1.0

[Q] Has N#CC[C@@H](NC[C@H]1CC[C@H](n2ccc(=O)c3cnc4[nH]ccc4c32)CC1)C(F)(F)F [Synthetic Example 3] a recorded pIC50 greater than or equal to 6?
[A] 1.0

[Q] Has Cc1cnn(C[C@H]2CC[C@H](n3ccc(=O)c4cnc5[nH]ccc5c43)CC2)c1 [Synthetic Example 4] a recorded pIC50 greater than or equal to 6?
[A] 1.0

[Q] Has COC1CCC(n2ccc(=O)c3cnc4[nH]ccc4c32)CC1 (stereo not drawn) [Compound G, reference compound] a recorded pIC50 greater than or equal to 6?
[A] 0.0

[Q] Has N#CC[C@@H](OC[C@H]1CC[C@H](n2ccc(=O)c3cnc4[nH]ccc4c32)CC1)C(F)(F)F [Synthetic Example 7] a recorded pIC50 greater than or equal to 6?
[A] 1.0

[Q] Has O=c1ccn([C@H]2CC[C@H](COCCC(F)(F)F)CC2)c2c1cnc1[nH]ccc12 [Synthetic Example 6] a recorded pIC50 greater than or equal to 6?
[A] 1.0

====

Task for the reader: assign each of the following compounds its reported IC50.

[Q] State measured IC50 of the compound N#CC[C@@H](NC[C@H]1CC[C@H](n2c(=O)[nH]c(=O)c3cnc4[nH]ccc4c32)CC1)C(F)(F)F [Synthetic Example 1] with Tyk2 (Homo sapiens (Human)).
Sequence (P29597 whole entry): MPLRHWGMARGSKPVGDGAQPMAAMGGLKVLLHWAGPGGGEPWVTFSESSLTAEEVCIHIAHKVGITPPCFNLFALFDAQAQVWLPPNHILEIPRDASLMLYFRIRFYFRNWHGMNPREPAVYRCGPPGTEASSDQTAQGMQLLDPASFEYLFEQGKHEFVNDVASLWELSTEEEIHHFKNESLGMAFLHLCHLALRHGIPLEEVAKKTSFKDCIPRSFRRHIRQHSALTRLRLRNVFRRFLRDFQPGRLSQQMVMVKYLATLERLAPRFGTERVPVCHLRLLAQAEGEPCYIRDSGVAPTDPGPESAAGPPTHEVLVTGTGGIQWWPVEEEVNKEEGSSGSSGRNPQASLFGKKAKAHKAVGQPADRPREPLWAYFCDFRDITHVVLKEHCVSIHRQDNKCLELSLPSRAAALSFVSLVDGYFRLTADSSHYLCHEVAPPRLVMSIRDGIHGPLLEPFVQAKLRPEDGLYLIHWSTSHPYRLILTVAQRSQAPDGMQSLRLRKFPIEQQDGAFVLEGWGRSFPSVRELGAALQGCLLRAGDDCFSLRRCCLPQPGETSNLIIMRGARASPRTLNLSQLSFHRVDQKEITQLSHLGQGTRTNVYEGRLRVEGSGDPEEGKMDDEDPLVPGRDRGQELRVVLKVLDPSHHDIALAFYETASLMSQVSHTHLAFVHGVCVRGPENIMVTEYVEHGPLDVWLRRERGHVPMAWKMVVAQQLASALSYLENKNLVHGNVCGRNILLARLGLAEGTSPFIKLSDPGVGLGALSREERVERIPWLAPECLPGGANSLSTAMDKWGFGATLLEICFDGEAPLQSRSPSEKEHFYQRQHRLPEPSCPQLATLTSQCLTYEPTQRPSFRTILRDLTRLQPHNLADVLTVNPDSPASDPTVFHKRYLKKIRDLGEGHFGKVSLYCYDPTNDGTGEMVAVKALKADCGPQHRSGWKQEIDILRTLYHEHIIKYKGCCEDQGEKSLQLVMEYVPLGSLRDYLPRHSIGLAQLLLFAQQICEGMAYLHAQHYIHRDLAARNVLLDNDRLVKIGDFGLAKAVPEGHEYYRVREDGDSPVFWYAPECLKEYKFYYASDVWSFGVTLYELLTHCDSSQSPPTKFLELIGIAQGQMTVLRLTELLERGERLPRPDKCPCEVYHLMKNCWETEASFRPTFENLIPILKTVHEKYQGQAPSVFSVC
[A] 22 nM

[Q] State measured IC50 of the compound Cc1cnn(C[C@H]2CC[C@H](n3ccc(=O)c4cnc5[nH]ccc5c43)CC2)c1 [Synthetic Example 4] with Tyk2 (Homo sapiens (Human)).
[A] 39 nM

[Q] State measured IC50 of the compound O=c1ccn([C@H]2CC[C@H](COCC(F)(F)F)CC2)c2c1cnc1[nH]ccc12 [Synthetic Example 5] with Tyk2 (Homo sapiens (Human)).
[A] 10 nM

[Q] State measured IC50 of the compound O=c1ccn([C@H]2CC[C@H](COCCC(F)(F)F)CC2)c2c1cnc1[nH]ccc12 [Synthetic Example 6] with Tyk2 (Homo sapiens (Human)).
[A] 19 nM

====

# System: cytokine signaling via JAK
# Experiment description: Signal assay in rat whole blood (STAT phosphorylation assay)
# Type: cell-based
# Condition parameters: T-cell; female Lewis rat whole blood, rat IL-6 100 ng/mL, phosphated STAT-1 in CD3 positive T cells
Metric: pIC50
In simple prose, pIC50 is minus the logarithm base ten of a concentration in moles per litre.

[Q] # return recorded pIC50 for input N#CCCN(CCC#N)CC1CCC(n2c(=O)[nH]c(=O)c3cnc4[nH]ccc4c32)CC1 (stereo not shown)
[A] 5.89

[Q] # return recorded pIC50 for input O=c1[nH]c(=O)n([C@H]2CC[C@H](COCCC(F)(F)F)CC2)c2c1cnc1[nH]ccc12 [Synthetic Example 2]
[A] 6.57

[Q] # return recorded pIC50 for input N#CC[C@@H](NC[C@H]1CC[C@H](n2c(=O)[nH]c(=O)c3cnc4[nH]ccc4c32)CC1)C(F)(F)F [Synthetic Example 1]
[A] 6.41

[Q] # return recorded pIC50 for input O=c1[nH]c(=O)n(C2CCC(CNCC(F)(F)F)CC2)c2c1cnc1[nH]ccc12 (stereo not shown)
[A] 5.62

====

Task for the reader: assign each of the following molecules its reported IC50.
Numbers only here, please. The scale is nM.

[Q] State measured IC50 of the molecule O=c1ccn([C@H]2CC[C@H](COCC(F)(F)F)CC2)c2c1cnc1[nH]ccc12 [Synthetic Example 5] with JAK3 (Homo sapiens (Human), UniProt P52333).
Sequence (P52333 whole entry): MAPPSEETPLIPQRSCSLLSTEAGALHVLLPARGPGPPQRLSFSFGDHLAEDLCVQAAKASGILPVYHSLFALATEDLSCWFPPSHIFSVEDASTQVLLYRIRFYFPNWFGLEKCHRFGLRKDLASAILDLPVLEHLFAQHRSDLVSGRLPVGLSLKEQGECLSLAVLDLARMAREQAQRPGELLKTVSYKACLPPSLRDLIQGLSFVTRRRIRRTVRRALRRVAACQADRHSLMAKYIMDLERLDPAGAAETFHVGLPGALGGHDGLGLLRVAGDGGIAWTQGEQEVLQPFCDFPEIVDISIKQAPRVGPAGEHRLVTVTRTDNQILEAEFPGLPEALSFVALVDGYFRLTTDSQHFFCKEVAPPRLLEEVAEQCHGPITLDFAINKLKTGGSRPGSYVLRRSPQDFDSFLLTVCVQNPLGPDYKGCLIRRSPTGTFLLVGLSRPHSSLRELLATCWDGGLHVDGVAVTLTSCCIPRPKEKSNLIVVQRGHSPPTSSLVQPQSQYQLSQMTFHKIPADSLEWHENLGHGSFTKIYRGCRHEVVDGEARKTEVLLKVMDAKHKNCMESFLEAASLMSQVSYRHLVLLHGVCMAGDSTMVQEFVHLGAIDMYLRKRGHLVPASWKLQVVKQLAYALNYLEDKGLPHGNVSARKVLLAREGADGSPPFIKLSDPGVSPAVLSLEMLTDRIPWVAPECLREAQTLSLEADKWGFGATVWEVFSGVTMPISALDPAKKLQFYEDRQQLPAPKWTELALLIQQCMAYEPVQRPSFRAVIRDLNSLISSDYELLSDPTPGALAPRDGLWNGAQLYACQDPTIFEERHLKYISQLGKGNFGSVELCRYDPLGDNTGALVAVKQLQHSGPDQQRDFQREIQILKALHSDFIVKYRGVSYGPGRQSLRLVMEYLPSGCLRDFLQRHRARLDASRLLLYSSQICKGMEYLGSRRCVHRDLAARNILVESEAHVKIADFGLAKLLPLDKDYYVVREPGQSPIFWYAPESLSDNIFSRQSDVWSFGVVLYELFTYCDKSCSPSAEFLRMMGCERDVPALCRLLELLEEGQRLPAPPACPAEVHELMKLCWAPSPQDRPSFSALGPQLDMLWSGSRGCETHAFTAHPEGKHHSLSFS
[A] 2.7

[Q] State measured IC50 of the molecule N#CC[C@@H](OC[C@H]1CC[C@H](n2ccc(=O)c3cnc4[nH]ccc4c32)CC1)C(F)(F)F [Synthetic Example 7] with JAK3 (Homo sapiens (Human), UniProt P52333).
[A] 5.1

[Q] State measured IC50 of the molecule N#CC[C@@H](NC[C@H]1CC[C@H](n2c(=O)[nH]c(=O)c3cnc4[nH]ccc4c32)CC1)C(F)(F)F [Synthetic Example 1] with JAK3 (Homo sapiens (Human), UniProt P52333).
[A] 15

[Q] State measured IC50 of the molecule O=c1[nH]c(=O)n([C@H]2CC[C@H](COCCC(F)(F)F)CC2)c2c1cnc1[nH]ccc12 [Synthetic Example 2] with JAK3 (Homo sapiens (Human), UniProt P52333).
[A] 2.9

[Q] State measured IC50 of the molecule N#CC[C@@H](NC[C@H]1CC[C@H](n2ccc(=O)c3cnc4[nH]ccc4c32)CC1)C(F)(F)F [Synthetic Example 3] with JAK3 (Homo sapiens (Human), UniProt P52333).
[A] 10

[Q] State measured IC50 of the molecule Cc1cnn(C[C@H]2CC[C@H](n3ccc(=O)c4cnc5[nH]ccc5c43)CC2)c1 [Synthetic Example 4] with JAK3 (Homo sapiens (Human), UniProt P52333).
[A] 7.1

[Q] State measured IC50 of the molecule O=c1ccn([C@H]2CC[C@H](COCCC(F)(F)F)CC2)c2c1cnc1[nH]ccc12 [Synthetic Example 6] with JAK3 (Homo sapiens (Human), UniProt P52333).
[A] 2.5

====

Assay system JAK2 (Homo sapiens (Human)); read-out recorded as IC50.
Numbers only here, please. The scale is nM.

[Q] # return recorded IC50 for input N#CC[C@@H](NC[C@H]1CC[C@H](n2c(=O)[nH]c(=O)c3cnc4[nH]ccc4c32)CC1)C(F)(F)F [Synthetic Example 1]
[A] 4.6

[Q] # return recorded IC50 for input Cc1cnn(C[C@H]2CC[C@H](n3ccc(=O)c4cnc5[nH]ccc5c43)CC2)c1 [Synthetic Example 4]
[A] 1.9

[Q] # return recorded IC50 for input O=c1ccn([C@H]2CC[C@H](COCCC(F)(F)F)CC2)c2c1cnc1[nH]ccc12 [Synthetic Example 6]
[A] 1.6

[Q] # return recorded IC50 for input O=c1[nH]c(=O)n([C@H]2CC[C@H](COCCC(F)(F)F)CC2)c2c1cnc1[nH]ccc12 [Synthetic Example 2]
[A] 1.5

[Q] # return recorded IC50 for input N#CC[C@@H](NC[C@H]1CC[C@H](n2ccc(=O)c3cnc4[nH]ccc4c32)CC1)C(F)(F)F [Synthetic Example 3]
[A] 5.1

[Q] # return recorded IC50 for input N#CC[C@@H](OC[C@H]1CC[C@H](n2ccc(=O)c3cnc4[nH]ccc4c32)CC1)C(F)(F)F [Synthetic Example 7]
[A] 2

====

Task for the reader: assign each of the following compounds its reported pIC50.
In simple prose, pIC50 is minus the logarithm base ten of a concentration in moles per litre.

[Q] State measured pIC50 of the compound N#CC[C@@H](NC[C@H]1CC[C@H](n2c(=O)[nH]c(=O)c3cnc4[nH]ccc4c32)CC1)C(F)(F)F [Synthetic Example 1] with UniProt P23458.
Sequence (P23458 whole entry): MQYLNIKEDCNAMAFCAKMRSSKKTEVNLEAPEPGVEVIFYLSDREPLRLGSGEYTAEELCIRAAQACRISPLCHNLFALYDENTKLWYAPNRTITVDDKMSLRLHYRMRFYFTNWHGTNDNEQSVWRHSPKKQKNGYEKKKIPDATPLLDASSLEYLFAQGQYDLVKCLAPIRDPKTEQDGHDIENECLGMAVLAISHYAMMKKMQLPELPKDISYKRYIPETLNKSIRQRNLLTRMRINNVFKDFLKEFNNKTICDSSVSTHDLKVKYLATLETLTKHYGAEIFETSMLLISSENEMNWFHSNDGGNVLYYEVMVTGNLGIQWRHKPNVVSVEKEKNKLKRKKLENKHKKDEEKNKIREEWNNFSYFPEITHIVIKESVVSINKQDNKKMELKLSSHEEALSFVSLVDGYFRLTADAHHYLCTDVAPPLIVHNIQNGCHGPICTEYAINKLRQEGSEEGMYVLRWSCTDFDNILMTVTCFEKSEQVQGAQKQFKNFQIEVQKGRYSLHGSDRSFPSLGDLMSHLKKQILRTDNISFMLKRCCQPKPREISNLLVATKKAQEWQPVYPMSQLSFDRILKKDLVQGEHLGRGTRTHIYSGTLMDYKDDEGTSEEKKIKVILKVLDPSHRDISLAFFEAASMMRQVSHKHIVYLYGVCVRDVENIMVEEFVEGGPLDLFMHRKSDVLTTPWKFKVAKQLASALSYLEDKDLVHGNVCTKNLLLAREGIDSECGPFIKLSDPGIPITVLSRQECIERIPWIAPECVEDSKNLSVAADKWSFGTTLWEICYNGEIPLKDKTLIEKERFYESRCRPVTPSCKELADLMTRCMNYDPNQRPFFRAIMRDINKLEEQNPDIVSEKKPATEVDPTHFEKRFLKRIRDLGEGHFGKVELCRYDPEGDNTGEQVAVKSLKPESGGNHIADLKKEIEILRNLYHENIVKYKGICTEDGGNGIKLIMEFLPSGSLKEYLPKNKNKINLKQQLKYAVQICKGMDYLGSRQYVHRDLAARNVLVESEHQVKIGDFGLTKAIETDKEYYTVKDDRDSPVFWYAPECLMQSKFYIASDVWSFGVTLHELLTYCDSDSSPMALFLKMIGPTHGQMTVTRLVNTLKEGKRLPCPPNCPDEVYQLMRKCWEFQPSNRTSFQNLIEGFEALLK
[A] 9.00

[Q] State measured pIC50 of the compound O=c1ccn([C@H]2CC[C@H](COCC(F)(F)F)CC2)c2c1cnc1[nH]ccc12 [Synthetic Example 5] with UniProt P23458.
[A] 9.23

[Q] State measured pIC50 of the compound O=c1[nH]c(=O)n([C@H]2CC[C@H](COCCC(F)(F)F)CC2)c2c1cnc1[nH]ccc12 [Synthetic Example 2] with UniProt P23458.
[A] 9.46

[Q] State measured pIC50 of the compound Cc1cnn(C[C@H]2CC[C@H](n3ccc(=O)c4cnc5[nH]ccc5c43)CC2)c1 [Synthetic Example 4] with UniProt P23458.
[A] 9.39

[Q] State measured pIC50 of the compound N#CC[C@@H](OC[C@H]1CC[C@H](n2ccc(=O)c3cnc4[nH]ccc4c32)CC1)C(F)(F)F [Synthetic Example 7] with UniProt P23458.
[A] 9.13

[Q] State measured pIC50 of the compound N#CC[C@@H](NC[C@H]1CC[C@H](n2ccc(=O)c3cnc4[nH]ccc4c32)CC1)C(F)(F)F [Synthetic Example 3] with UniProt P23458.
[A] 8.77

[Q] State measured pIC50 of the compound O=c1ccn([C@H]2CC[C@H](COCCC(F)(F)F)CC2)c2c1cnc1[nH]ccc12 [Synthetic Example 6] with UniProt P23458.
[A] 9.17
